# System: DLD-1
# Assay procedure: NCI tumour cell line growth inhibition, 48 h
Activity calls are given as the source filed them. Cut-off read from the data, not from the text of the source: active = GI50 up to about 1.1 µM and inactive = higher.
The reader will find reported GI50 values listed item by item below.

Cc1ncc(CCl)c(CCl)c1O    > 100 µM (inactive)
N#Cc1c(-c2ccc(Cl)c(Cl)c2)c(-c2ccc(Cl)c(Cl)c2)nn(CC(=O)O)c1=O    63.5 µM (inactive)

Reported GI50, compound O=c1[nH]c2cc([N+](=O)[O-])ccc2nc1/C(=N\NO)C(O)c1ccc([N+](=O)[O-])cc1 (stereo unspecified) : ____ > 100 µM (inactive)

Fill in the blank: the reported GI50 of "O=C(CC(=O)c1cccc([N+](=O)[O-])c1)C(=O)Nc1nc([N+](=O)[O-])cs1" is ____. > 100 µM (inactive)

# lookup: GI50 of O=C1c2ccccc2CC1C1(O)C(=O)Nc2ccccc21 (stereo unspecified) > 100 µM (inactive)

Report GI50 for "CCOC(=O)CSc1nnc(CSc2nc(-c3ccccc3)c(-c3ccccc3)[nH]2)n1-c1ccccc1" please. > 100 µM (inactive)

---

# System: LOX IMVI
# Assay procedure: NCI tumour cell line growth inhibition, 48 h
Active and inactive are the calls of the source. Cut-off read from the data, not from the text of the source: active = GI50 up to about 1.1 µM and inactive = higher.
Your reply should match one of these outcome classes. active, inactive

COc1cc(/C=C2\Cc3ccccc3C2=O)cc(OC)c1OC    inactive
COc1cccc2c1C(=O)c1c(O)c3c(c(O)c1C2=O)CC(O)(C(=O)CO)CC3OC1CC(N2CCOCC2C#N)C(O)C(C)O1 (stereo not given)    active
Cc1[nH]c(=O)nc(S)c1C(=O)Nc1cccc2cc3ccccc3cc12    inactive
O=S(=O)(c1cc(Cl)ccc1Cl)n1ccnc1    inactive

# next compound below
Write down the call the test reported for this compound. Item: "COc1ccc([N+]2=NC(c3ccc([N+](=O)[O-])cc3)=NN(c3ccccc3)C2)cc1.[O-][Cl+3]([O-])([O-])[O-]" inactive

---

# Tested on: DU-145
# Assay procedure: NCI tumour cell line growth inhibition, 48 h
The source made the active and inactive calls. Rule as the data show it: active = GI50 up to about 1.1 µM and inactive = higher.
Metric: GI50

Worked examples, 3 compounds total:
O=c1cccc2n1CC1CNC[C@H]2C1    > 100 µM (inactive)
O=CN1CCN(C(=O)c2ccc(Cl)c(Cl)c2)C1=S    15.7 µM (inactive)
C=C1C(=O)[C@@]23CC[C@@H]4[C@@]5(C)CCC[C@@]4(OC5=O)C2(C)CC[C@]1(OC)C3 (some centres undefined)    4.41 µM (inactive)

From here, focus on the item given below.
Query (compound): "O=C(c1ccccc1)c1ccc(N2C(=O)/C(=C/c3cccc([N+](=O)[O-])c3)N=C2c2ccccc2)c(N2C(=O)/C(=C/c3cccc([N+](=O)[O-])c3)N=C2c2ccccc2)c1" ; field requested: GI50 51.9 µM (inactive)

---

Reported GI50 values follow for various compounds
# Test system: OVCAR-3
# Assay procedure: NCI tumour cell line growth inhibition, 48 h
Calls of active or inactive are those of the source. Cut-off read from the data, not from the text of the source: active = GI50 up to about 1.1 µM and inactive = higher.

COc1cc(NS(C)(=O)=O)ccc1Nc1cc(C)nc2ccc3[nH]ccc3c12    > 100 µM (inactive)

Suppose we examine the compound CN(C)/C=[N+]1/[C@@H](Cc2ccccc2)C(=O)O[B-]1(F)c1ccccc1 (stereo partly specified) ; what GI50 value has been reported? > 100 µM (inactive)

GET /values?readout=GI50&item= Clc1cccc2c1OCC1C(c3ccccc3)=NN(c3ccccc3)C21 (stereo unspecified) > 100 µM (inactive)

// GI50 lookup, key: COC(=O)NC1C(C)OC(OC2C/C=C(/C)C3C=CC4C(OC5CC(OC6CC(O)C(OC7CC(O)C(OC)C(C)O7)C(C)O6)C(O)C(C)O5)C(C)CC(C)C4C3(C)C(=O)C3=C(O)C4(CC(C)C(CO)=CC4/C=C\2C)OC3=O)CC1(C)[N+](=O)[O-] (stereo unspecified) 6.84 µM (inactive)

Given the entry "C/C(=C1/N=C(c2cc([N+](=O)[O-])ccc2Cl)N(c2ccc(Br)cc2)C1=O)c1ccc(N(CCC#N)CCC#N)cc1C" , report its measured GI50. 24.5 µM (inactive)

What does the data say about its GI50? Entry: O=C1OC(C(O)CO)C(O)=C1O (stereo unspecified) > 100 µM (inactive)

Entry under review: "COc1ccc(-c2cc(O)c3ccc(F)cc3n2)cc1" . Reported GI50? > 100 µM (inactive)

Source of measurements: ChEMBL document CHEMBL1201862
